Test system: MS2 coat protein
METHOD: apparent KD of MS2 coat protein; designed switch direction (-1 OFF switch, 1 ON switch): -1; higher = weaker reporter binding
APPLIED_CONDITIONS: Eterna round: R95; input ligand: microRNA oligo, concentration not stated
RESULT_TYPE: apparent KD of MS2 coat protein (nM)
One number for each entry, in nM.

MONOMER_SEQUENCE	apparent KD of MS2 coat protein, nM
GUCAUACAUGAGGAUCACCCAUGUAAGGAUAUGCUAGCGGUCGGAAGACUGACUGCUAGCAGAAGGUACAUGAU [Mat - Mod of JL D80] (puzzle: Exclusion 1)	61.5
AAGAAACAUGAGGAUCACCCAUGUGAGGAUAUGAUGAAGAAAAGAAAAGAAAGAAGAAUCAGAAGGCACAAAGG [salish99-ex1_r3_043] (puzzle: Exclusion 1)	48.2
CAUGCACAUGAGGAUCACCCAUGUCAGGAUAUCUAUCAUAGCAUCGAAAGAUGCGGGUAGAGAAGGGACAACCC [ChP Ext 10-04-2015 #10] (puzzle: Exclusion 1)	15.5

Record apparent KD of MS2 coat protein per entry; entries follow.
1. AUGAGCAGACGGAGAUCCAACAUGAGGAUCACCCAUGUCUCAAAAGCUUUUUGCUCAUCUUAUUGUACCUUGGUGCG [Mat - Sensor v3 - turn-off var 1 - JL Mod - D18] (puzzle: Sensor v3, turn-off variant 1)
2. CGUACUGAAGUAAGGAUAUUGUCUCGGAUACGAAACAAGAAGGUACAUGAGGAUCACCCAUGUUGACAGUACGA [Malc #30 mod 8] (puzzle: Brourd's mod of Exclusion 4)
3. AAUAACAGAGGAUAUACUGUUUUAUGUGUUUAUUGUUUUAAACAUGAGGAUCACCCAUGUAGAAGGCUGAAUAA [JMF 17] (puzzle: Exclusion 2)
4. GUGUAACUACACGGGCUCAACAUGAGGAUCACCCAUGUCAUACACGCAAGCUUUUUGCUUGUCUUAUCUGUCCGUGU [Cegeesre] (puzzle: Sensor v3, turn-off variant 1)
5. CUGGUCCGAGGAUAUAUGAUGUGAAACAUGAGGAUCACCCAUGUAAUAUUAUGGAAGUAAAUAGAAGGCGGACUAG [Mat - Exclusion 5 - JL mod - D34] (puzzle: Exclusion 5)
6. CUUUUGUGAGGAUAUCAGUAGUAAAAAAAUUAAAUUACUACUGAGAAGGCACAUGAGGAUCACCCAUGUUCCUC [salish99_ex4_r3_022] (puzzle: Exclusion 4)
7. GCAUCCAUAGUGAGGAUAUACCUCUGGAUACAUAGGUAGAAGGCACAUGAGGAUCACCCAUGUUCUUAGGAUGC [Fiskers BMX 4 - 34] (puzzle: Brourd's mod of Exclusion 4)

9.21
14
23.4
12.2
49.5
36.4
23.9

Please state apparent KD of MS2 coat protein for every sequence in the list that follows.
1. AAAUACAAGUAAGGAUUCUACAUGAGGAUCACCCAUGUGCUCGUCUUAUAAAGUACUAUCACGAAAGUGAUAGUACA [Sensor 3, v1 - 38] (puzzle: Sensor v3, turn-off variant 1)
2. AUCUUGUAAGGAUAUCUGACAAGUGACGAAAGUCACAGUUCAGAGAAGGUACAUGAGGAUCACCCAUGUAGAAC [Ex4-3: 41] (puzzle: Exclusion 4)
3. UUUAAUUUUUUUUUUUUACAAGCUUUUUGCUCGUCUUAUACAUGAGGAUCACCCAUGUGAAUGGGAGAUAAAUUAUC [JMF 18] (puzzle: Sensor v3, turn-off variant 2)
4. AGUACUAACACGAAAGUGUUAGUACUGUAGGUUUGUGUUACAUGAGGAUCACCCAUGUCCUCAUAAGCUCGUCUUGU [Mat - Sensor v3 - Turn-off var 2 - D96] (puzzle: Sensor v3, turn-off variant 2)
5. AAAUCCGCUGAGGAUAUUAUCAGUGAGAGCUGAUGAGAAGGCGGUACAUGAGGAUCACCCAUGUCUAUGGGCAA [Ex-6 Malc#25] (puzzle: Exclusion 6)
6. CGGGCAUGAGGAUAUCGAGGUUAGUACAUGAGGAUCACCCAUGUUAUCCAGGUGUCGGUUCGAGAAGGCAUGGCCG [LRO-Ex5-11] (puzzle: Exclusion 5)
7. GCUUUUCUUUUCCUUUCUUACAUGAGGAUCACCCAUGUUUCUUGUCGUGCUCGCGUUGUUCGUCUGUCUGUCUGUUG [salish99_TOv1_r3_081] (puzzle: Sensor v3, turn-off variant 1)
8. GGCCCUAGGGUCAGAUGCACAAGCUUUUUGCUCGUUUUAACAUGAGGAUCACCCAUGUCUAGUGGAUCUGAUCGGGU [Indiso] (puzzle: Sensor v3, turn-off variant 2)

190
15.9
508
152
208
230
35.5
48.7

For each of the sequences below, state apparent KD of MS2 coat protein.
1. CCCUCACAUGAGGAUCACCCAUGUCAGGAUAUCUAGUCAGACAGUAUAGCACUGCUGAAGAGAAGGGACGUAAA [Labiusce] (puzzle: Exclusion 1)
2. AGUUGCGCAGGAUAUACAUGAGGAUCACCCAUGUGAGAGAAAUAAGUGAGGAAGAAAAGUAGAAGGGCGUGACA [Mat - Exclusion 3 - Mod of Salish D74] (puzzle: Exclusion 3)

[17, 40.6]
